system: Rap guanine nucleotide exchange factor 3 (Homo sapiens)
test_protocol: Counterscreen qHTS for antagonist of cAMP-regulated guanine nucleotide exchange factor 3 (EPAC1) (AID 1645888);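 also: fluorescence loss as bound BODIPY-GDP is released from Rap1B; % of control where 0% means no effect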
assay_conditions: Rap1B-BODIPY-GDP nucleotide exchange, fluorescence; series mostly up to 154 µM
Results filed as inconclusive are left out. The source made the active and inactive calls. Calls follow the shape of the dose curve; as a rule, active = well fitted inhibition curve with a large enough effect; inconclusive = small, poorly fitted or top-dose-only effect; inactive = no such curve, though single readings can be large or run the other way.
readout_label: activity change, negative = inhibition

// worked examples, activity change, negative = inhibition included
COc1ccccc1C(=O)Nc1nnc(SCc2cc(=O)c3ccccc3[nH]2)s1    inactive
Cc1ccc(C)c(N2CCN(C(=O)c3ccc4c(=O)n5c(nc4c3)CCCCC5)CC2)c1    -18% [at 30.8 µM] (inactive)
O=C(CC(c1ccccc1)c1cc(Cl)ccc1O)N1CCCC1 (stereo unspecified)    inactive
CN(CC(=O)Nc1ccc(F)cc1)C(=O)COc1ccc(C(=O)c2ccccc2)cc1    inactive
CCN(CC)c1ccc2cc(C(=O)NNC(=O)c3ccc(S(=O)(=O)N4CCCCC4)cc3)c(=O)oc2c1    inactive
Cc1ccc(-n2nc3c(=O)n(CCCC(=O)NCc4ccc(F)cc4)nc(C)c3c2C)cc1    inactive

Task: If you can, please state the reported activity change, negative = inhibition value of C[C@H](c1ccccc1)N1C[C@H](COCc2ccccc2)Oc2cc(N3CC[C@@H](O)C3)ccc2S1(=O)=O .
Output: -15.5% [at 30.8 µM] (inactive)

Task: Name the reported activity change, negative = inhibition value associated with the compound Cn1cc(S(=O)(=O)Nc2cccc(F)c2)c(=O)n(C)c1=O
Output: -13.5% [at 30.8 µM] (inactive)

###

system: Tumor susceptibility gene 101 protein (Homo sapiens) (UniProt Q99816)
Sequence (Q99816 whole entry, looked up): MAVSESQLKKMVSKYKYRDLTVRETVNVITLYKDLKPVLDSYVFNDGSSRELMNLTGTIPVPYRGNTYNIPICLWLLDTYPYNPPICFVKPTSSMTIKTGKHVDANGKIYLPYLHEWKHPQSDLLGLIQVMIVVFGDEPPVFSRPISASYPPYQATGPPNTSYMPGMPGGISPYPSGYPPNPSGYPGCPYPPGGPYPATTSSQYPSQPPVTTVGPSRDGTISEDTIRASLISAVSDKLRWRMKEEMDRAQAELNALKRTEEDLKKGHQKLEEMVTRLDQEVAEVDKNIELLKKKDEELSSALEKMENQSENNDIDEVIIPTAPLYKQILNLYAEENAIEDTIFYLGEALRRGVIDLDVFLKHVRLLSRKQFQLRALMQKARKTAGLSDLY
test_protocol: qHTS Assay for Iinhibitors of HIV-1 Budding by Blocking the Interaction of PTAP/TSG101: Hit Validation (AID 651600); also: nearly all actives have a fitted effect of over 70% in size
assay_conditions: PTAP peptide/TSG101 UEV interaction, biochemical assay; series mostly up to 57.5 µM
Inconclusive results are not listed. Activity calls are given as the source filed them. The call rests on the fitted dose curve; in most records, active means well fitted inhibition curve with a large enough effect; inconclusive means small, poorly fitted or top-dose-only effect; inactive means no such curve, though single readings can be large or run the other way.
// classify into 1.0 = active, 0.0 = inactive

Task: Hi team, can someone confirm the assay call for N#CC(C(=O)OC1CCCCC1)c1nc2ccccc2nc1N1CCOCC1 (stereo unspecified) ?
Output: 1.0

Task: Could you check what this test reported for O=C(O)c1ccccc1-c1ccc(/C=C/c2cc(C(F)(F)F)[nH]c(=O)n2)o1 ?
Output: 0.0

Task: // param item: Cn1nc(-c2ccccc2)c2nc3ccccc3nc21 ; yields the recorded call
Output: 1.0

Task: Which outcome was assigned to COc1ccccc1NC(=O)c1sc2nc(Cc3ccccc3)cc(C(F)(F)F)c2c1N in this test?
Output: 1.0

Task: Which outcome was assigned to O=C(O)c1cc(Cl)ccc1-c1ccc(/C=C/c2cc(C(F)(F)F)[nH]c(=O)n2)o1 in this test?
Output: 0.0

Task: Lab log entry: O=C1CCN2C=Nc3cccc4ccc1c2c34 — outcome as called in the assay?
Output: 1.0

Task: Look up the recorded call for Cc1nc2ccccc2n2c(O)c(CC(=O)O)cc12 in this test.
Output: 1.0

Task: Each compound tested received a call. Report the one for O=C1c2cccc3c(O)ccc(c23)C(=O)N1Cc1ccco1 .
Output: 1.0

###

system: Rap guanine nucleotide exchange factor 3 (Homo sapiens) (UniProt O95398)
Sequence (O95398 whole entry, looked up): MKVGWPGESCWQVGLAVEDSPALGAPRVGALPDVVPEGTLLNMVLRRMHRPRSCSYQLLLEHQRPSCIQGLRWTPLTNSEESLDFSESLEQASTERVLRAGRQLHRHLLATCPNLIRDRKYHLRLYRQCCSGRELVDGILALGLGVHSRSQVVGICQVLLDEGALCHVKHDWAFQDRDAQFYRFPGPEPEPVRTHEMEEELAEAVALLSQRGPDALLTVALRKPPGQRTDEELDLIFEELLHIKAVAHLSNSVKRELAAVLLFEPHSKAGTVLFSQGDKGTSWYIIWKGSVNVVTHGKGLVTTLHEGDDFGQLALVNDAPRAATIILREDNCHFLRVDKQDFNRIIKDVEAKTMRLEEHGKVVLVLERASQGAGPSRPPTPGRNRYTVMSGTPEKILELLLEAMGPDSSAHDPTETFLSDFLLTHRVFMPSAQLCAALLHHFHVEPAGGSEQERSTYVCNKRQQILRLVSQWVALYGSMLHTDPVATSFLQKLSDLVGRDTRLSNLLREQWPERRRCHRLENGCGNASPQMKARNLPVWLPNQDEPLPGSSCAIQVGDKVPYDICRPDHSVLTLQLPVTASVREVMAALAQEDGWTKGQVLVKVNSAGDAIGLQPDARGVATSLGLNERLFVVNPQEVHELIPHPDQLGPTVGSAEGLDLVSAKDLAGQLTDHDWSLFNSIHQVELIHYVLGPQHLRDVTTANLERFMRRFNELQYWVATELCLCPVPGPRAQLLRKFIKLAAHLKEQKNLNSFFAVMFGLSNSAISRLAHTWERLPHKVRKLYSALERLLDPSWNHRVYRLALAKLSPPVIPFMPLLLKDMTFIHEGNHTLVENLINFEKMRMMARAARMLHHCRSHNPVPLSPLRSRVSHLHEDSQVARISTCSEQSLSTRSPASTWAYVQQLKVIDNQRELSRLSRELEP
test_protocol: Confirmatory qHTS for agonist of cAMP-regulated guanine nucleotide exchange factor 3 (EPAC1) (AID 1645881); also: nearly all actives have a fitted effect of over 75% in size;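 as to activation: EPAC1 catalysed release of BODIPY-GDP from Rap1B seen as fluorescence loss; 100% = effect of cAMP agonist control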
assay_conditions: EPAC1 Rap1B BODIPY-GDP exchange fluorescence; series mostly up to 154 µM
Records with an inconclusive call do not appear. Calls of active or inactive are those of the source. Calls come from the whole dose curve; as a rule, active = well fitted activation curve with a large enough effect; inconclusive = small, poorly fitted or top-dose-only effect; inactive = no such curve, though single readings can be large or run the other way.
Returns: one label drawn from active, inactive

// below: answered molecules
CCCc1ccc2oc(C(=O)NCCc3nc(C(=O)OCC)cs3)c(C)c2c1    inactive
CCOC(=O)Nc1cc2c(c(N)n1)N=C(c1ccccc1)CN2    inactive
CCc1nc2c(OCc3ccc(C(F)(F)F)cc3)cccn2c1N(C)C(=O)C1CC1    inactive

Task: Per the assay record, what outcome was assigned to O=C(N/N=C/c1c(O)n(-c2ccccc2Cl)c(=O)c2ccccc12)C1COc2ccccc2O1 (stereo unspecified) ?
Output: inactive

Task: What was the test verdict on C=CCn1c(=O)/c(=C/c2ccc(C)o2)s/c1=C(/C#N)C(=O)c1ccccc1 ?
Output: inactive

Task: Which outcome was entered for the molecule O=c1oc2ccccc2n1Cc1ccccc1Cl in this test?
Output: inactive

Task: Record lookup: outcome of this test for CCOC(=O)C1=C(N)Oc2cc(O)ccc2C1c1ccccc1 (stereo unspecified) ?
Output: inactive

Task: Outcome? O=C(NCc1ccc(F)cc1)c1cccc2c1C(=O)c1ccc(N3CCOCC3)cc1S2(=O)=O
Output: active

Task: What did this assay record as the result for Cc1noc(C)c1S(=O)(=O)Nc1ccc2c(c1)C(=O)N([C@@H](C)CO)C[C@@H](C)[C@@H](CN(C)CC1CCCCC1)OCCCC[C@@H](C)O2 ?
Output: inactive

Task: // outcome(item) with item = O=C(Cc1ccc(Cl)cc1)Nc1cccc(C(=O)Nc2ccccc2C(=O)O)c1
Output: inactive

Task: Which outcome did this test record for the molecule COc1ccccc1Nc1cc2cc(Br)ccc2c(=O)[nH]1 ?
Output: inactive

Task: # outcome recorded in this test, key = Cc1ccc(O)c(-c2n[nH]c3c2C(c2ccc(F)cc2)N(Cc2ccco2)C3=O)c1 (stereo unspecified)
Output: inactive

Reference source: PubChem BioAssay (NCATS)
